# credit: ChEMBL document CHEMBL3124924

Tested on: Candida albicans
EXPERIMENT DESCRIPTION: Fungicidal activity against Candida albicans ATCC 10231 after 18 hrs
Type: functional
PARTICULARS: ATCC 10231, 18 h
REPORTED METRIC: MFC (µg/mL)

STRUCTURE | ASSAY RESULT
Cc1nc(NC(=O)NC2CCCCC2)sc1C(=O)NN | 100
CCOC(=O)c1sc(NC(=O)C(F)(F)F)nc1C | 100
Cc1nc(NC(=S)Nc2ccc(F)cc2)sc1C(=O)NN | 12.5
CCOC(=O)c1sc(NC(=O)CN2CCOCC2)nc1C | 100
Cc1nc(N)sc1C(=O)Nc1ccc(F)cc1 | 100
Cc1ccc(NC(=S)Nc2nc(C)c(C(=O)NN)s2)cc1 | 100
Cc1nc(NC(=O)Nc2ccccc2)sc1C(=O)NN | 25
CCOC(=O)c1sc(NC(=S)Nc2ccc(F)cc2)nc1C | 50
CCOC(=O)c1sc(NC(=O)Nc2ccccc2)nc1C | 25
